- assay-name: in vitro
- Assay type: cell-based
- stated-conditions: fathead minnow (Pimephales promelas)
outcome-measure: viability at 3 days, 400 µM (%)
The answer is to be given in %; state only the numeric part.

Qu. Record request: viability at 3 days, 400 µM value, item Nc1nc2c(ncn2COCCO)c(=O)[nH]1 [acyclovir]
Ans. 110

====

- assay-name: in vitro
- Assay type: cell-based
- stated-conditions: fathead minnow (Pimephales promelas)
outcome-measure: viability at 3 days, 200 µM
State the value with its unit after it.

Qu. Record request: viability at 3 days, 200 µM value, item Nc1nc2c(ncn2COCCO)c(=O)[nH]1
Ans. 111%

====

- assay-name: in vitro
- Type: cell-based
- stated-conditions: fathead minnow (Pimephales promelas)
outcome-measure: viability at 3 days, 1600 µM (%)
The answer is to be given in %; state only the numeric part.

Qu. Record request: viability at 3 days, 1600 µM value, item Nc1nc2c(ncn2COCCO)c(=O)[nH]1
Ans. 94.3

====

- assay-name: in vitro
- Assay type: cell-based
- stated-conditions: fathead minnow (Pimephales promelas)
outcome-measure: viability at 3 days, 800 µM (%)
The answer is to be given in %; state only the numeric part.

Qu. Record request: viability at 3 days, 800 µM value, item Nc1nc2c(ncn2COCCO)c(=O)[nH]1 [acyclovir]
Ans. 103

====

- assay-name: in vitro
- Assay type: cell-based
- stated-conditions: fathead minnow (Pimephales promelas)
outcome-measure: viability at 3 days, 50 µM (%)
The answer is to be given in %; state only the numeric part.

Qu. Record request: viability at 3 days, 50 µM value, item Nc1nc2c(ncn2COCCO)c(=O)[nH]1
Ans. 113

====

- assay-name: in vitro
- Format: cell-based
- stated-conditions: fathead minnow (Pimephales promelas)
- Description: In brief, 96-well plates were seeded with the EPC cells at a density of 2 × 10^4 cells/well and incubated for 24 h at 25 °C. The growth medium was then replaced with acyclovir-containing medium at concentrations of 3200 µM, 1600 µM, 800 µM, 400 µM, 200 µM, 100 µM, and 50 µM.
outcome-measure: viability at 3 days, 100 µM (%)
The answer is to be given in %; state only the numeric part.

Qu. Record request: viability at 3 days, 100 µM value, item Nc1nc2c(ncn2COCCO)c(=O)[nH]1
Ans. 105

====

- assay-name: in vitro
- Type: cell-based
- stated-conditions: fathead minnow (Pimephales promelas)
outcome-measure: viability at 3 days, 3200 µM (%)
The answer is to be given in %; state only the numeric part.

Qu. Record request: viability at 3 days, 3200 µM value, item Nc1nc2c(ncn2COCCO)c(=O)[nH]1 [acyclovir]
Ans. 103
